System: Leishmania donovani
Test: Antileishmanial activity against Leishmania donovani MHOM/BR/74/PP75 promastigotes after 72 hrs
Conditions: MHOM/BR/74/PP75, 72 h
value.kind: IC50 (µM)
Response body: numeric value in µM, unit text excluded.

N=C(N)c1ccc(OCCCCCOc2ccc(C(=N)N)cc2)cc1 [PENTAMIDINE] : 29.4

Request: Reported IC50 for CCCCCCCCCCCCC/C=C1/CCC[C@H](O)[C@H]1OC(C)=O : what is it?
Result: 13.3

Request: Reported IC50 for CCCCCCCCCCCCCC[C@@H]1CCC[C@H](O)[C@H]1N (relative stereo) : what is it?
Result: 0.29

Request: Reported IC50 for CCCCCCCCCCCCC/C=C1/CCC[C@@H]2[C@H]1N2CCCCCC (stereo partly specified) : what is it?
Result: 1.8

Request: Reported IC50 for CCCCCCCCCCCCC/C=C1/CCC[C@H](O)[C@H]1NCCN (relative stereo) : what is it?
Result: 1.1
